molecular target: GABA-A receptor; alpha-1/beta-2/gamma-2 (Rattus norvegicus) (UniProt P18508+P62813+P63138); test: Activity at rat GABA-Aalpha1 receptor plus beta-2-gamma-2L expressed in Xenopus laevis oocyte assessed as ratio of GABA-mediated current in presence to absence of compound at 0.1 uM; type: functional
MEASUREMENT_LABEL: Ratio
Give the figure only, with no unit attached.

Past entries and their recorded results:
{"columns": ["MOLECULE", "Ratio"],
 "data": [
  ["C[C@]12CC[C@@H]3C[C@H](CCO)CC[C@H]3[C@@H]1CCC2=O", 0.99],
  ["C[C@]12C[C@H]3CC[C@H](CCO)CC3C[C@@H]1CCC2=O (single isomer, unassigned; 1a)", 1]
]}

// next item, Ratio requested
Ask | Entry under review: C[C@]12C[C@H]3CC[C@H](CCO)CC3C[C@@H]1CC[C@@H]2C#N (single isomer, unassigned; 2d) . Reported Ratio?
Reply | 0.98

FYI, the data here is from ChEMBL document CHEMBL1137418.
